- System: MS2 coat protein
- PROCEDURE_SUMMARY: apparent KD of MS2 coat protein; designed switch direction (-1 OFF switch, 1 ON switch): -1; higher = weaker reporter binding
- EXPERIMENTAL_CONTEXT: input ligand: FMN 200 uM
MEASUREMENT_LABEL: apparent KD of MS2 coat protein (nM)
Numbers only, in nM.

Guide cases for apparent KD of MS2 coat protein, answers given:
ACAUGAGGAUCACCCAUGUACAGGGUUUAGUUUCAUCGUUUGAAGGAUAUACUCAGUUAGUUGUUGUAGAAGGUCACAUUUUGG [JR_ExcNG3_Sub004] (Eterna round: R96, puzzle: Exclusion NG 3) | 138
GCCGAAAGUGUGAGGAUAUACCUAUGGAUACAUAGGUAGAAGGCACAUGAGGAUCACCCAUGUUCCUCAUCGGC [Eli bmx4 4.17] (Eterna round: R97, puzzle: Brourd's mod of Exclusion 4) | 551
AGUGCAUGAGGAUAUGCAAAUCGAAAGACGCAAGGGCAAUCACAUGAGGAUCACCCAUGUAGAAGGCGUCGCAC [Eternabot (Original) Solution 17] (Eterna round: R97, puzzle: Exclusion 2) | 30.7
AGAGUGCUGCGAGGAUAUACAUGAGGAUCACCCAUGUUAUCGUGUGAGGCUUUGCCUCACACGAAGUAGAAGGCGCAGUACUCA [Mat - Exclusion NG 2 - Mod of JL - D100] (Eterna round: R96, puzzle: Exclusion NG 2) | 13.4

# evaluate next
### Prompt Lab note: MS2 coat protein assay, enter apparent KD of MS2 coat protein for AACAGUCUGGAGGAUAUGCUGGAUUAAAAUCUGGCAGAAGGCUGGACAUGAGGAUCACCCAUGUAAAUACUACC [Omei Ex6 A2a] (Eterna round: R97, puzzle: Exclusion 6) here
### Response 73.1
